Target: Neuraminidase (Influenza A virus (A/Puerto Rico/8/1934(H1N1)))
Classify: Criterion met when IC50 is strictly less than 80 µM; Criterion not met when IC50 is not.

Example cases with answers are listed next.
{"compound": "CC1CCCCN1Cc1c(O)cc(O)c2c(=O)cc(-c3ccc(O)c(O)c3)oc12 (stereo not given)", "label": "Criterion not met"}
{"compound": "O=c1cc(-c2ccccc2)oc2c(CN3CCOCC3)c(O)cc(O)c12", "label": "Criterion not met"}
{"compound": "O=c1cc(-c2ccc(O)cc2)oc2c(CN3CCCC(O)C3)c(O)cc(O)c12 (stereo not given)", "label": "Criterion met"}

Next compound, please.
IN: Does the reported IC50 of CN1CCN(Cc2c(O)cc(O)c3c(=O)cc(-c4ccccc4)oc23)CC1 stay below 80 µM?
OUT: Criterion not met

* * *

Molecular target: Neuraminidase (Influenza A virus (A/Puerto Rico/8/1934(H1N1)), UniProt P03468)
Sequence (P03468 whole entry): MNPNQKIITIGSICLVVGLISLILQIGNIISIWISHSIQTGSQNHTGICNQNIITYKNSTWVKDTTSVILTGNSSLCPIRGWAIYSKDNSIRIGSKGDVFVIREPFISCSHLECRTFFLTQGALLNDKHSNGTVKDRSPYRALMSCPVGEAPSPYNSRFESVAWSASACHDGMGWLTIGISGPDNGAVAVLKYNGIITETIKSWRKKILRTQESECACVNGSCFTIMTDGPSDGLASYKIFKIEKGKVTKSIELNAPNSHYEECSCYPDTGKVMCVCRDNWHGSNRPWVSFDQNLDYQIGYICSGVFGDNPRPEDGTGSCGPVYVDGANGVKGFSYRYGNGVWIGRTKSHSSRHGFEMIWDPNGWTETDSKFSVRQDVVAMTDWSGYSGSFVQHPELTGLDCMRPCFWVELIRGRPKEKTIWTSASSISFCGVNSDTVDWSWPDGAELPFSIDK
measurement.kind: IC50 (µM)
Give bare numbers, in µM.

{"compound": "O=c1cc(-c2ccccc2)oc2c(CN3CCN(CCO)CC3)c(O)cc(O)c12", "reported.value": 135}
{"compound": "CN1CCN(Cc2c(O)cc(O)c3c(=O)cc(-c4ccc(O)c(O)c4)oc23)CC1", "reported.value": 53.8}

Provide IC50 for all items below, preserving their order.
1. CN1CCN(Cc2c(O)cc(O)c3c(=O)cc(-c4ccc(O)cc4)oc23)CC1
2. O=c1cc(-c2ccc(O)c(O)c2)oc2c(CN3CCC(CO)CC3)c(O)cc(O)c12
3. CC1CCCN(Cc2c(O)cc(O)c3c(=O)cc(-c4ccc(O)cc4)oc23)C1 (stereo not given)
4. O=c1cc(-c2ccc(O)cc2)oc2c(CN3CCC(O)CC3)c(O)cc(O)c12
5. O=c1cc(-c2ccccc2)oc2c(CN3CCC(CO)CC3)c(O)c(O)c(O)c12
6. O=c1cc(-c2ccc(O)cc2)oc2c(CN3CCC(Cc4ccccc4)CC3)c(O)cc(O)c12
7. O=c1cc(-c2ccccc2)oc2c(CN3CCC(CO)CC3)c(O)cc(O)c12

OUT:
1: 148; 2: 64.2; 3: 52.5; 4: 168; 5: 470; 6: 46.1; 7: 83.7

* * *

Biological target: Neuraminidase (Influenza A virus (A/Puerto Rico/8/1934(H1N1)), UniProt P03468)
measurement.kind: log10 IC50 (log10 of the value in µM)
Friendly reminder: values = log10 of IC50, unit µM.

Here are 10 compounds together with their reported answers.
{"compound": "O=c1cc(-c2ccccc2)oc2c(CN3CCCC(O)C3)c(O)cc(O)c12 (stereo unspecified)", "reported.value": 2.41}
{"compound": "O=c1cc(-c2ccccc2)oc2c(CN3CCC(O)CC3)c(O)c(O)c(O)c12", "reported.value": 1.96}
{"compound": "O=c1cc(-c2ccc(O)c(O)c2)oc2c(CN3CCCCC3)c(O)cc(O)c12", "reported.value": 1.80}
{"compound": "C[C@@H]1COC[C@H](C)N1Cc1c(O)c(O)c(O)c2c(=O)cc(-c3ccccc3)oc12", "reported.value": 2.77}
{"compound": "CN1CCN(Cc2c(O)c(O)c(O)c3c(=O)cc(-c4ccccc4)oc23)CC1", "reported.value": 2.48}
{"compound": "O=c1cc(-c2ccccc2)oc2c(CN3CCCCC3)c(O)c(O)c(O)c12", "reported.value": 2.02}
{"compound": "O=c1cc(-c2ccccc2)oc2c(CN3CCCC3)c(O)cc(O)c12", "reported.value": 2.26}
{"compound": "CC1CCN(Cc2c(O)cc(O)c3c(=O)cc(-c4ccc(O)cc4)oc23)CC1", "reported.value": 2.21}
{"compound": "O=c1cc(-c2ccc(O)cc2)oc2c(CN3CCC(CO)CC3)c(O)cc(O)c12", "reported.value": 1.61}
{"compound": "O=c1cc(-c2ccccc2)oc2c(CN3CCCC(O)C3)c(O)c(O)c(O)c12 (stereo unspecified)", "reported.value": 1.83}

Would you kindly look at the next entry?
IN: Please report log10 IC50 for the following compound: O=c1cc(-c2ccccc2)oc2c(CN3CCN(CCO)CC3)c(O)c(O)c(O)c12
OUT: 2.44
